target: MED23 (mediator of RNA polymerase II transcription subunit 23) (Homo sapiens, UniProt Q9ULK4); construct: (His)6-MED23_391-582; with ELF3 (FITC-labeled ELF3_129-145 peptide); experiment: cell-free fluorescence polarization displacement of FITC-ELF3_[…]-145 from (His)6-MED23_[…]-582
Sequence (Q9ULK4 391-582, other chains not shown): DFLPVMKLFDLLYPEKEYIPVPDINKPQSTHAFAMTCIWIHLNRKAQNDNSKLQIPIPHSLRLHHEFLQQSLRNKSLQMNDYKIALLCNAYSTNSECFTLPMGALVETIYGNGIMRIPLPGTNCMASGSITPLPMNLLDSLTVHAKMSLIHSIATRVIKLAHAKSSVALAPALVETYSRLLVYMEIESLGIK
readout.type: Ki (µM)

compound_structure=COc1ccc(/C=C/C(=O)c2cc(OC)c(OC)c(OC)c2)cc1OCC=C(C)C readout_type=Ki observed_value=0.68
